Ref: patent US10562893B2

Biological target: RLK/TXK (Homo sapiens (Human))
Test: RLK/TXK kinase inhibition assay
Conditions: micro-fluidic detection, 3 hours at 25° C.
pEC50: −log10 of the molar value.
Measured pEC50 by item
Assay metric: pEC50

Compound	Measured
C=CC(=O)N[C@H]1CCC[C@@H](n2c(NC(=O)c3ccc(C(F)F)s3)nc3cc(CN[C@@H](C)C(C)(C)C)ccc32)C1 [Compound 68]	> 8.00
C=CC(=O)Nc1cccc(-n2c(NC(=O)c3cccc(C#N)c3)nc3cc(CN[C@@H](C)C(C)(C)C)ccc32)c1 [Compound 9]	> 8.00
C=CC(=O)N[C@H]1CC[C@@H](n2c(NC(=O)c3ccc(C(F)F)s3)nc3cc(CN[C@@H](C)C(C)(C)C)ccc32)C1 [Compound 62]	7.00 to 8.00
C=CC(=O)Nc1cccc(-n2c(NC(=O)c3ccc(-c4cnco4)s3)nc3cc(CN[C@@H](C)C(C)(C)C)ccc32)c1 [Compound 25]	> 8.00

====

Measured EC50 by item
Target: RLK/TXK (Homo sapiens (Human), UniProt P42681)
Sequence (P42681 whole entry): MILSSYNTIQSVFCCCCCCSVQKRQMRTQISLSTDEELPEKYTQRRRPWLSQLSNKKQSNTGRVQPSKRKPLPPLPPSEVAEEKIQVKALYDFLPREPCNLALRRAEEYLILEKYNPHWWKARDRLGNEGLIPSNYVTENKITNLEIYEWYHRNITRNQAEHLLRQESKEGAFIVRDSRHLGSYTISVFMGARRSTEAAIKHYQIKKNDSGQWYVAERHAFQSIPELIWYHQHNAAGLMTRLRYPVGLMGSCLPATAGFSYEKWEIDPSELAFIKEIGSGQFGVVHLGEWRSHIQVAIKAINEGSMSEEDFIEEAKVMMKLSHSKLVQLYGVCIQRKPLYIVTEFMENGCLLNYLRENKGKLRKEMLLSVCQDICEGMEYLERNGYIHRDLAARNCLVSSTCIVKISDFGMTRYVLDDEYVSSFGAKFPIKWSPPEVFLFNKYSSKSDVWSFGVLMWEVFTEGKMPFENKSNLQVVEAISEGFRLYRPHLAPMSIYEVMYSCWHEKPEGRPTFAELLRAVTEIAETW
Assay: RLK/TXK kinase inhibition assay
Conditions: micro-fluidic detection, 3 hours at 25° C.
Assay metric: EC50

C=CC(=O)Nc1cccc(-n2c(NC(=O)c3nccs3)nc3cc(CN[C@@H](C)C(C)(C)C)ccc32)c1 0.01 to 0.1 µM
C=CC(=O)Nc1cccc(-n2c(NC(=O)c3ccccn3)nc3cc(CN[C@@H](C)C(C)(C)C)ccc32)c1 > 0.1 µM
C=CC(=O)N[C@H]1C[C@@H](n2c(NC(=O)c3ccc(C(F)F)s3)nc3cc(CN[C@@H](C)C(C)(C)C)ccc32)C1 0.01 to 0.1 µM
C=CC(=O)Nc1cccc(-n2c(NC(=O)c3cnco3)nc3cc(CN[C@@H](C)C(C)(C)C)ccc32)c1 0.01 to 0.1 µM

====

Biological target: UniProt:P42680
Sequence (P42680 whole entry): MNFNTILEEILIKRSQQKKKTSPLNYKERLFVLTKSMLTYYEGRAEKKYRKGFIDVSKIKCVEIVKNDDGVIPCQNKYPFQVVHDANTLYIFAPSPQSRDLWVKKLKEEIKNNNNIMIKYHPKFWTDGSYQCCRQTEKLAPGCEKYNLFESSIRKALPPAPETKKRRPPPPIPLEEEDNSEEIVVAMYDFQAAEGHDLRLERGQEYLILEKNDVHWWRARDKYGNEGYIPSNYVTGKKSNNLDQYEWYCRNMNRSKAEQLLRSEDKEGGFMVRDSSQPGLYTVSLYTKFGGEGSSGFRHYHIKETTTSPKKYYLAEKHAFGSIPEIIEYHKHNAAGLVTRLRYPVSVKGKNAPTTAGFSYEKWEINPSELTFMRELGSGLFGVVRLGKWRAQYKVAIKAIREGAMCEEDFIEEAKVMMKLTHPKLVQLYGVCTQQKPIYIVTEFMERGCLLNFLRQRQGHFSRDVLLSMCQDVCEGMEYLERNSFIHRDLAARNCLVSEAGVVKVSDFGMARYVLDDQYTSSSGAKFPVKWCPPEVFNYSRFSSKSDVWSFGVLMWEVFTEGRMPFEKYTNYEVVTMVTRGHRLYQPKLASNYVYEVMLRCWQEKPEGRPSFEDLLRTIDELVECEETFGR
Assay: Tec kinase inhibition assay
Details: micro-fluidic detection, 3 hours at 25° C.
Experimental: The in vitro kinase assays were performed at Nanosyn utilizing micro-fluidic detection technology. […] Terminated plates were analyzed using Caliper LabChip® 3000 microfluidic electrophoresis instrument (Caliper Life Sciences/Perkin Elmer). […] As substrate and product are separated by electrophoresis, two peaks of fluorescence are observed. Change in the relative fluorescence intensity of the substrate and product peaks was the parameter measured, reflecting enzyme activity. […]
pEC50: −log10 of the molar value.
Assay metric: pEC50

C=CC(=O)Nc1cccc(-n2c(NC(=O)c3ccc(C(F)F)s3)nc3cc(CN[C@@H](C)C(C)(C)C)ccc32)c1 7.00 to 8.00
C=CC(=O)Nc1cccc(-n2c(NC(=O)c3ccno3)nc3cc(CN[C@@H](C)C(C)(C)C)ccc32)c1 7.00 to 8.00
C=CC(=O)Nc1cccc(-n2c(NC(=O)c3cccc(C#N)c3)nc3cc(CN[C@@H](C)C(C)(C)C)ccc32)c1 7.00 to 8.00
C=CC(=O)Nc1cccc(-n2c(NC(=O)c3ccnn3C)nc3cc(CN[C@@H](C)C(C)(C)C)ccc32)c1 7.00 to 8.00
C=CC(=O)Nc1cccc(-n2c(NC(=O)c3ccc(-c4cnco4)s3)nc3cc(CN[C@@H](C)C(C)(C)C)ccc32)c1 > 8.00

====

System: Human PBMCs
Experiment: CD3/CD28 mediated PBMC proliferation assay
Format: cell-based
Conditions: proliferation of human PBMCs stimulated with anti-CD3 and anti-CD28, 72 hours, Cell Titer-Glo
pEC50: −log10 of the molar value.
Measured pEC50 by item
Assay metric: pEC50

C=CC(=O)Nc1cccc(-n2c(NC(=O)c3ccc(C(F)F)s3)nc3cc(C(=O)NC4CCCCC4)ccc32)c1 7.00 to 8.00
C=CC(=O)Nc1cccc(-n2c(NC(=O)c3ccc(C(F)F)s3)nc3cc(CNC4CCCCC4)ccc32)c1 7.00 to 8.00
C=CC(=O)N[C@H]1CC[C@@H](n2c(NC(=O)c3ccc(C(F)F)s3)nc3cc(CN[C@@H](C)C(C)(C)C)ccc32)C1 < 7.00
C=CC(=O)Nc1cccc(-n2c(NC(=O)c3ccc(OC)cc3)nc3cc(CN[C@@H](C)C(C)(C)C)ccc32)c1 < 7.00
